Origin of the recorded values: the RNAGym collection of RNA variant scans (doi:10.1021/acssynbio.7b00057)

aptazyme ON/OFF ratio overview
B1: Pistol ribozyme (parent)
chain: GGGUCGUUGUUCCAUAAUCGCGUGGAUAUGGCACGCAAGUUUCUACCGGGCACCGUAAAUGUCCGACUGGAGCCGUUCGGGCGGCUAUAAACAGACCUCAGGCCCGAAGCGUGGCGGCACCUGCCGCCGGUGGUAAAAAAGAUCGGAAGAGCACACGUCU

# Variants of: B1
# MEASUREMENT_NOTES: aptazyme ON/OFF ratio, guanine; higher = stronger switching; co-transcriptional cleavage with and without guanine

| VARIANT_STRING | aptazyme ON/OFF ratio |
| --- | --- |
| U7C U8C G9C U11A C12G | 1.14 |
| U7A U8G G9U U10A U11G C13G | 1.12 |
| U7G U8A U10G U11A C12A C13G | 1.15 |
| U7C U11A C12A C13U | 1.28 |
| G9C U11G C12A | 1.11 |
| U7A U8A G9U U10A U11A C12U C13A | 1.2 |
| U7C U8C G9C U10G U11G C12U | 1.11 |
| U7C U8C C12U C13A | 1.41 |
| U8C C13G | 1.11 |
| U8A G9A U10C U11G C12U C13U | 1.22 |
| U7A U8A G9A U10C U11G C12G C13U | 1.08 |
| U7G U8C G9U U10G U11A C12A C13A | 1.12 |
| U7C U8G G9A U10A U11G C12A C13G | 1.19 |
| U7A U8G G9C U10A U11A C12G | 1.36 |
| U8C G9U U10A U11C C12U C13U | 1.23 |
| U7G G9U | 2.19 |
| U7G G9U U10A C13A | 1.44 |
| U7A U8A U10C U11C C12U C13U | 1.05 |
| U7C U8G U10C U11A C12U C13G | 1.11 |
| U7G G9A U10G U11C C12A C13A | 1.09 |
| U7A U8A G9U U10C | 2.34 |
| U8C G9C U10A U11G | 1.16 |
| U7C U8G U11C C12U C13U | 1.35 |
| U7C G9C U11C C12A C13U | 1.05 |
| U7A U8C G9A | 1.74 |
| U7C G9C U10C U11A C12A C13G | 1.05 |
| U7G U8C G9A U10A U11A C12G C13U | 1.15 |
| U7A U8C G9C U10A C12A C13A | 1 |
| U8C G9A U10C U11A | 3.76 |
| U7G U8A G9C U11A C12A C13A | 1.01 |
| U7G G9A U10A U11A C12A C13A | 1.07 |
| U7C G9C U10C C12U C13A | 1.04 |
| U7C U8G U10C C13G | 2.71 |
| U7G U8C G9C U10G U11G C12U | 1.06 |
| G9A U10C C12U C13A | 1.38 |
| U7G U8C G9C U11A C12G C13U | 1.1 |
| U7C U8A U10A U11G C12U C13U | 1.2 |
| G9C U10G U11G C12U C13G | 1.08 |
| U8C G9U U11C C12A | 1.12 |
| U7A U8C G9U U10A U11G C12U C13G | 1.21 |
| U7C G9C U10A U11G C13G | 1.07 |
| G9A U10G U11G C12U C13G | 1.19 |
| U7G U8C G9U U10C C13A | 1.37 |
| U7C U8A G9U U10C U11C C12A C13A | 1.06 |
| U7C U8G G9A U11A C12U | 1.26 |
| U7G G9U C12A C13A | 1.46 |
| U7A U8C G9C U11G C13A | 1.05 |
| U7G U8G G9U U10G U11A C12U C13G | 1.19 |
| U7C U8G G9C U10C U11G C13A | 1.11 |
| U7A G9C U10G U11G C12U | 1.14 |
| U8A G9C C12G C13G | 1.14 |
| U7G U8G G9A U10G U11C C13G | 1.08 |
| U7C U8G U10A | 2.08 |
| G9A U11C | 1.12 |
| G9U U10A U11C C12A C13A | 1.06 |
| U7G U8A G9U U10C U11C C12A | 1.09 |
| U8G G9U U10A C13A | 1.1 |
| U7G U8G G9U U10G C13G | 1.21 |
| U7C G9A U10C U11C C13U | 1.03 |
| U7G U8C G9U U10C U11G | 1.76 |
| U7C U8A G9U U10G U11G C12A | 1.16 |
| U7A U8C G9U U10C U11A C13G | 1.09 |
| U7G U8G G9U U10C U11C C12U C13A | 1.18 |
| U7A U8G G9A U10G U11G C12A C13U | 1.5 |
| U7A G9U U10G C12A C13U | 1.3 |
| U8C G9U U10A U11C | 1.06 |
| U7C U10C U11C C12U | 1.31 |
| U8C U10A U11G C12G C13A | 1.43 |
| U7A U8C U10A U11A C13A | 1.2 |
| U7C G9A U11G C12A C13U | 1.14 |
| U7C U8C G9A U10C U11A C12U | 1.22 |
| U7C U8C G9C U10G U11C C12G C13U | 1.11 |
| U7C U8G U10A U11C C12A C13U | 1.15 |
| U7A U8C U10A U11A C12U C13G | 1.33 |
| U7G U8A G9U U10C U11G C12U C13U | 1.19 |
| U8G G9C C12U C13U | 1.06 |
| U7C U8C G9C U10C U11A C13G | 1.13 |
| U7G U8G G9A U11C C12G C13A | 1.21 |
| U7A U10C U11C C12G C13G | 1.09 |
| U8G G9U U10C U11G C13A | 1.04 |
| U7A U8A G9A U10A U11C C12G C13G | 1.3 |
| U7A U8G G9C U11C C12G | 1.65 |
| U8G G9U U10A U11A | 1.59 |
| U7A G9C U10C U11C C13U | 1.03 |
| U7A G9C U10A U11A C12A C13U | 1.09 |
| U7A G9C U11C C12U C13G | 1.12 |
| U7C G9A U10A U11C C12A C13A | 1.1 |
